meta.source: the supplement of paper PMC9112550

System: Escherichia coli TOP10;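 also: peptides expressed intracellularly from a pBAD plasmid library in pooled LB shake-flask culture, induced with 0.3% L-arabinose, DNA abundance read by NGS, three biological replicates, DESeq2 with apeglm shrinkage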
assayProtocol: shrunken log2 fold change of peptide-encoding DNA abundance (4.5 h post-induction vs induction); higher = less antimicrobial activity (less host growth inhibition)
measurementSetup: time post-induction: 4.5 h; library: site-saturation at positions 5, 18, 19, 20

- sequenceChain: "RRIRCRPPRLPRPRPRPWNEPRP"
  assayedTarget: "Escherichia coli TOP10"
  shrunken log2 fold change: -0.705
- sequenceChain: "RRIRIRPPRLPRPRPRPIQAPRP"
  assayedTarget: "Escherichia coli TOP10"
  shrunken log2 fold change: -0.209
- sequenceChain: "RRIRARPPRLPRPRPRPFTEPRP"
  assayedTarget: "Escherichia coli TOP10"
  shrunken log2 fold change: -0.261
- sequenceChain: "RRIRNRPPRLPRPRPRPCLNPRP"
  assayedTarget: "Escherichia coli TOP10"
  shrunken log2 fold change: -0.0299
- sequenceChain: "RRIRLRPPRLPRPRPRPRADPRP"
  assayedTarget: "Escherichia coli TOP10"
  shrunken log2 fold change: 2.32
- sequenceChain: "RRIRRRPPRLPRPRPRPYKFPRP"
  assayedTarget: "Escherichia coli TOP10"
  shrunken log2 fold change: 0.0202
- sequenceChain: "RRIRVRPPRLPRPRPRPHILPRP"
  assayedTarget: "Escherichia coli TOP10"
  shrunken log2 fold change: -0.234
- sequenceChain: "RRIRERPPRLPRPRPRPRTFPRP"
  assayedTarget: "Escherichia coli TOP10"
  shrunken log2 fold change: -0.0471
